- System: corn earworm (Helicoverpa zea)
- method-notes: Insecticidal test on treated lepidopteran diet, corn earworm
- Assay type: in vivo
- test-conditions: 120 h; second-instar larvae on treated diet, 8 wells; dose of 50 mg/cm^2 [sic] (2000 ppm, 50 μL); dead insects counted 5 days after treatment; read-out: AVG HELIZE 50 (percent control, corn ear worm)
Each record here notes measured pest or weed control at 2000 µg/mL.
readout-type: pest or weed control at 2000 µg/mL (%)

1) COCCNc1nc(N/N=C/c2ccc(F)cc2)nc(Nc2ccc(OC(F)(F)F)cc2)n1 :: 63
2) FC(F)(F)Oc1ccc(/C=N/Nc2nc(Nc3ccc(OC(F)(F)F)cc3)nc(N3CCOCC3)n2)cc1 :: 100
3) FC(F)(F)COc1nc(N/N=C/c2ccc(Br)cc2)nc(Nc2ccc(OC(F)(F)F)cc2)n1 :: 100
4) CCOCCN(CCOCC)c1nc(N/N=C/c2ccc(OC(F)(F)F)cc2)nc(Nc2ccc(F)c(C(F)(F)F)c2)n1 :: 0

* * *

Each record here notes measured pest or weed control at 2000 µg/mL.
- System: corn earworm (Helicoverpa zea)
- method-notes: Insecticidal test on treated lepidopteran diet, corn earworm
- Assay type: in vivo
- test-conditions: 120 h; second-instar larvae on treated diet, 8 wells; dose of 50 mg/cm^2 [sic] (2000 ppm, 50 μL); dead insects counted 5 days after treatment; read-out: AVG HELIZE 50 (percent control, corn ear worm)
readout-type: pest or weed control at 2000 µg/mL (%)

1. FC(F)C(F)(F)Oc1cccc(Nc2nc(NCc3ccc(Cl)nc3)nc(N/N=C/c3ccc(Cl)cc3)n2)c1 :: 100
2. Fc1ccccc1/C=N/Nc1nc(NCc2ccc(Cl)nc2)nc(Nc2ccc(F)c(C(F)(F)F)c2)n1 :: 100
3. FC(F)(F)COc1nc(N/N=C/c2ccccc2OC(F)(F)F)nc(Nc2ccc(OC(F)(F)F)cc2)n1 :: 100
4. FC(F)(F)Oc1ccc(Nc2nc(N/N=C/c3cccc(Cl)c3)nc(N3CCOCC3)n2)cc1 :: 100
5. FC(F)(F)Oc1ccc(Nc2nc(N/N=C/c3cccc(Br)c3)nc(N3CCOCC3)n2)cc1 :: 100
6. COCCNc1nc(N/N=C/c2ccc(OC(F)(F)F)cc2)nc(Nc2cccc(C(F)(F)F)c2)n1 :: 75
7. FC(F)C(F)(F)Oc1ccc(Nc2nc(NCc3ccc(Cl)nc3)nc(N/N=C/c3ccc(Cl)c(Cl)c3)n2)cc1 :: 100
8. Fc1ccc(Nc2ncnc(N/N=C/c3cccc(C(F)(F)F)c3)n2)cc1C(F)(F)F :: 100
9. Cc1cnc(CNc2nc(N/N=C/c3cccc(OC(F)(F)C(F)F)c3)nc(Nc3ccc(F)c(C(F)(F)F)c3)n2)cn1 :: 63
10. COCCNc1nc(N/N=C/c2ccc(OC(F)(F)F)cc2)nc(Nc2ccc(OC(F)(F)F)cc2)n1 :: 88
11. Fc1ccc(Nc2nc(N/N=C/c3cccc(OC(F)(F)C(F)F)c3)nc(N3CCOCC3)n2)cc1C(F)(F)F :: 100
12. Fc1ccc(Nc2nc(NCc3ccc(Cl)nc3)nc(N/N=C/c3cccc(OC(F)(F)F)c3)n2)cc1C(F)(F)F :: 100
13. CCNc1nc(N/N=C/c2ccc(F)cc2)nc(Nc2ccc(OC(F)(F)F)cc2)n1 :: 38
14. Fc1ccc(Nc2nc(NCc3ccc(Cl)nc3)nc(N/N=C/c3ccc(Cl)cc3)n2)cc1C(F)(F)F :: 100
15. Fc1ccc(Nc2nc(NCc3ccc(Cl)nc3)nc(N/N=C/c3cccc(OC(F)(F)C(F)F)c3)n2)cc1C(F)(F)F :: 100
